- Study Target: hCB1 (Homo sapiens, UniProt P21554)
- Sequence (P21554 whole entry): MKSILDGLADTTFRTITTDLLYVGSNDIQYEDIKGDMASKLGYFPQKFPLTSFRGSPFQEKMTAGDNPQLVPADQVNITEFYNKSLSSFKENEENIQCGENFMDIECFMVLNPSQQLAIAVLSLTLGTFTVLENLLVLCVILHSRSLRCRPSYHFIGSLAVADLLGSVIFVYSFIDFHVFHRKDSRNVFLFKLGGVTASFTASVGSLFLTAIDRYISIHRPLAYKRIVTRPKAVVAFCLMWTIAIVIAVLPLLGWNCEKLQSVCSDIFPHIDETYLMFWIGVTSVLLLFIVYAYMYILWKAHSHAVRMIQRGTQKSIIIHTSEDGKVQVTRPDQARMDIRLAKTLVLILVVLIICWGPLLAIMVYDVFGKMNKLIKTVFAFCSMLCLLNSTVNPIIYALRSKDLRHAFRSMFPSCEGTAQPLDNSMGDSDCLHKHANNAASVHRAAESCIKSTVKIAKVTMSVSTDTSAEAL
- Procedure Summary: bioSensAll ebBRET signaling profiling, hCB1
- Assay type: cell-based
- Set-up: host or cells: HEK293SL cells, transient PEI transfection
- Condition Parameters: Log [Compound] (M) -11.9208; single replicate values, FigS6a
Decision: Gi1 hCB1 compared against 2; not below it gives TRUE, below it gives FALSE.

>>> class_label("Cc1cc(C(=O)N2CC3(CCC3)[C@H]2[C@H]2CCCO2)nn1-c1cccc(C(F)(F)F)c1 [‘1651]")
"FALSE"
>>> class_label("Cc1cc(C(=O)NC(c2ccccc2)c2ccco2)nn1-c1cccc(C#N)c1 (centres unmarked) [‘12565]")
"FALSE"
>>> class_label("Brc1cc2c(cc1Cc1noc(-c3cnn(CC4CC4)c3)n1)OCO2 [‘5424]")
"FALSE"
>>> class_label("Cc1cc(C(=O)N(C)C(c2ccccc2)c2ccco2)nn1-c1cccc(C(F)(F)F)c1 (centres unmarked) [‘1082]")
"TRUE"
>>> class_label("Cc1cc(C(=O)N(C)C(c2ccco2)c2ccco2)nn1-c1cccc(C(F)(F)F)c1 [‘4388]")
"TRUE"
>>> class_label("Cc1nn(Cc2ccc(Cl)cc2)c(C)c1C(=O)OCC1CSc2ccccc2O1 (centres unmarked) [‘5463]")
"FALSE"
>>> class_label("COC(=O)C(NC(=O)c1cc(C)n(-c2cccc(F)c2)n1)c1cccs1 (centres unmarked) [‘51486]")
"FALSE"
>>> class_label("Cc1cc(C(=O)N2CC3(CCC3)[C@@H]2[C@@H]2CCCO2)nn1-c1cccc(C(F)(F)F)c1 [‘3386]")
"FALSE"
>>> class_label("CC(=O)C(c1cccs1)N(C)C(=O)c1cc(C)n(-c2cccc(C(F)(F)F)c2)n1 (centres unmarked) [‘6829]")
"TRUE"
>>> class_label("Cc1cc(C(=O)N2CC3(CCC3)[C@@H]2[C@H]2CCCO2)nn1-c1cccc(C(F)(F)F)c1 (single isomer, unassigned) [compound 430]")
"FALSE"
>>> class_label("Cc1cc(C(=O)N2CC3(CCC3)[C@H]2[C@@H]2CCCO2)nn1-c1cccc(C(F)(F)F)c1 [‘5490]")
"TRUE"
>>> class_label("Cc1nc(CC2CC2)oc1-c1nc(Cc2cc3c(cc2Br)OCO3)no1 [‘7019]")
"FALSE"
>>> class_label("Cc1c(C(=O)OCC2CSc3ccccc3O2)cnn1Cc1ccccc1 (centres unmarked) [‘7800]")
"FALSE"
>>> class_label("Cn1nc(-c2nnc(C(C)(C)Oc3ccc(C(F)(F)F)cc3)o2)c2ccccc2c1=O [‘2153]")
"FALSE"
>>> class_label("COC(=O)[C@@H]1[C@@H]2CC[C@@H]2CN1C(=O)c1cc(C)n(-c2cccc(C(F)(F)F)c2)n1 [‘6448]")
"FALSE"
>>> class_label("Cc1cc(C(=O)NC(c2ccco2)c2ccco2)nn1-c1cccc(C(F)(F)F)c1 [‘1090]")
"FALSE"
>>> class_label("COc1cccc(C(NC(=O)c2cc(C)n(-c3cccc(C(F)(F)F)c3)n2)c2ccco2)c1 (centres unmarked) [‘1087]")
"TRUE"

----------
- Study Target: CB1 (rCB1) (Rattus norvegicus)
- Sequence (P20272 whole entry): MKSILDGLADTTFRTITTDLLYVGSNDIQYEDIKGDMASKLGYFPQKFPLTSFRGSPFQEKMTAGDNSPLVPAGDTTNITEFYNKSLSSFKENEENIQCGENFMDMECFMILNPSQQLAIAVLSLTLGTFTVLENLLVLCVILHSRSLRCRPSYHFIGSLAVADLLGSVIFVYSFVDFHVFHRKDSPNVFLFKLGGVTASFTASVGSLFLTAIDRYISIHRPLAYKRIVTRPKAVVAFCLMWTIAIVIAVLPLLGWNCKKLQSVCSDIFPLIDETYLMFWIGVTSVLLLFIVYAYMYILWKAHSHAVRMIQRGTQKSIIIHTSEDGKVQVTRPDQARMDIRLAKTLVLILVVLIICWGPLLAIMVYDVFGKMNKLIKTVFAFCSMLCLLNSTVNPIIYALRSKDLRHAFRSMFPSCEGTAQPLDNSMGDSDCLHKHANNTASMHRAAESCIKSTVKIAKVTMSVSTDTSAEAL
- Procedure Summary: Single-point radioligand displacement screen
- Format: binding
- Condition Parameters: Figure 1c source data, replicate 3
Parameter threshold = 30. Response is 1 when rep3_displacement meets or exceeds it, else 0.

>>> class_label("Cc1nc(CC2CC2)oc1-c1nc(Cc2cc3c(cc2Br)OCO3)no1")
1
>>> class_label("Cn1cc2c(n1)CCCC2c1nc(C2(c3cccc(C(F)(F)F)c3)CC2)no1 (stereo not drawn)")
1
>>> class_label("COc1cc(C(=O)OCC2CCCN2c2ccc(C)nn2)ccc1Cl (stereo not drawn)")
0
>>> class_label("Cc1ccc(OCCC(=O)N2CC3CCCN3c3ccccc32)c(C)c1 (stereo not drawn)")
1
>>> class_label("CCCC1CN(C(=O)c2cc(Oc3cccc(Br)c3)ccn2)CCO1 (stereo not drawn)")
0
>>> class_label("O=c1c2cnn(-c3ccccc3)c2nnn1Cc1cc(Cl)ccc1Cl")
1
>>> class_label("CC(Oc1ccccc1)c1noc(-c2ccc(=O)n(-c3ccc(F)cc3)n2)n1 (stereo not drawn)")
0
>>> class_label("CCc1nc(C(=O)NC(c2ccccc2)c2cccnc2)nn1-c1ccccc1Cl (stereo not drawn)")
0
>>> class_label("N#CCCn1ncc(C(=O)N2CCC(F)(c3cc(F)cc(F)c3)C2)c1-c1ccccc1 (stereo not drawn)")
0
>>> class_label("COC(=O)C(OC(=O)c1cc(C)n(-c2cccc(Cl)c2)n1)c1ccsc1 (stereo not drawn)")
0
>>> class_label("Cc1ccccc1-n1c(=O)c2ccccc2n2c(SC[C@H]3CCCO3)nnc12")
0
>>> class_label("COC(=O)c1nc(N(C)CCOc2ccc(Br)cc2)sc1C")
0
>>> class_label("O=C1Cc2cc(-c3csc(Cc4ccc(F)cc4)n3)cc3c2N1CCC3")
1
>>> class_label("C=CCn1c(SC(C)COC)nc2cc(-c3ccccc3)sc2c1=O (stereo not drawn)")
0
>>> class_label("Cc1cc(C(=O)Nc2ccnn2-c2cccc(Cl)c2)nn1[C@H](C)C1CC1")
1
>>> class_label("O=C1C(=O)N(C23CC4CC(CC(C4)C2)C3)C(=O)N1CC1CCC(C(F)(F)F)CC1 (stereo not drawn)")
1
>>> class_label("COc1cccc(C2(C)CCN(C(=O)CC34CCCCC3C4(F)F)C2)c1 (stereo not drawn)")
1

----------
- Study Target: hCB1 (Homo sapiens, UniProt P21554)
- Procedure Summary: bioSensAll ebBRET signaling profiling, hCB1
- Assay type: cell-based
- Parameters: host or cells: HEK293SL cells, transient PEI transfection
- Condition Parameters: Log [Compound] (M) -12.3979; single replicate values, FigS6a
Note to self: values exactly at 2 are Satisfied. So GoB hCB1 at or above 2 is Satisfied, below is Not satisfied.

>>> class_label("CC(=O)C(c1cccs1)N(C)C(=O)c1cc(C)n(-c2cccc(C(F)(F)F)c2)n1 (centres unmarked) [‘6829]")
"Satisfied"
>>> class_label("Cn1nc(-c2nnc(C(C)(C)Oc3ccc(Cl)cc3)o2)c2ccccc2c1=O [‘0450]")
"Not satisfied"
>>> class_label("Cc1cc(C(=O)N(C)C(c2ccco2)c2ccco2)nn1-c1cccc(C(F)(F)F)c1 [‘4388]")
"Not satisfied"
>>> class_label("COC(=O)[C@@H]1[C@@H]2CCC[C@@H]2CN1C(=O)c1cc(C)n(-c2cccc(Cl)c2)n1 (racemic) [‘10010]")
"Satisfied"
>>> class_label("Cc1cc(C(=O)N2CC3(CCC3)[C@@H]2[C@@H]2CCCO2)nn1-c1cccc(C(F)(F)F)c1 [‘3386]")
"Satisfied"
>>> class_label("Cc1cc(C(=O)N2CC3(CCC3)[C@H]2[C@@H]2CCCO2)nn1-c1cccc(C(F)(F)F)c1 [‘5490]")
"Satisfied"
>>> class_label("Cc1cc(C(=O)N2CC3(CCC3)[C@H]2[C@H]2CCCO2)nn1-c1cccc(C(F)(F)F)c1 [‘1651]")
"Satisfied"
>>> class_label("Cc1cc(C(=O)N2CC3(CCC3)[C@@H]2[C@H]2CCCO2)nn1-c1cccc(C(F)(F)F)c1 (single isomer, unassigned) [compound 430]")
"Satisfied"

----------
- Study Target: hCB1 (Homo sapiens, UniProt P21554)
- Procedure Summary: bioSensAll ebBRET signaling profiling, hCB1
- Type: cell-based
- Design: host or cells: HEK293SL cells, transient PEI transfection
- Condition Parameters: Log [Compound] (M) -8.68787; single replicate values, FigS6a
Result Type: GoB hCB1

>>> data_value("Brc1cc2c(cc1Cc1noc(-c3cnn(CC4CC4)c3)n1)OCO2 [‘5424]")
-5.77
>>> data_value("Cc1cc(C(=O)N2CC3(CCC3)[C@@H]2[C@@H]2CCCO2)nn1-c1cccc(C(F)(F)F)c1 [‘3386]")
-1.251
>>> data_value("Cc1cc(C(=O)N2CC3(CCC3)[C@H]2[C@@H]2CCCO2)nn1-c1cccc(C(F)(F)F)c1 [‘5490]")
-2.061
>>> data_value("Cc1nc(CC2CC2)oc1-c1nc(Cc2cc3c(cc2Br)OCO3)no1 [‘7019]")
-4.607
>>> data_value("COC(=O)C(NC(=O)c1cc(C)n(-c2cccc(C(F)(F)F)c2)n1)c1cccs1 (stereo not drawn) [‘60154]")
4.5753
>>> data_value("Cc1cc(C(=O)N2CC3(CCC3)[C@H]2[C@H]2CCCO2)nn1-c1cccc(C(F)(F)F)c1 [‘1651]")
-1.036
>>> data_value("Cn1nc(-c2nnc(C(C)(C)Oc3ccc(C(F)(F)F)cc3)o2)c2ccccc2c1=O [‘2153]")
-5.249
>>> data_value("Cc1cc(C(=O)NC(c2ccccc2)c2ccco2)nn1-c1cccc(C#N)c1 (stereo not drawn) [‘12565]")
-4.902
>>> data_value("Cc1cc(C(=O)N(C)C(c2ccco2)c2ccco2)nn1-c1cccc(C(F)(F)F)c1 [‘4388]")
-0.8377
